test system: SF-268; test: NCI tumour cell line growth inhibition, 48 h
Active and inactive are the calls of the source. No stated cut-off is given here; in the data, active = GI50 up to about 1.1 µM and inactive = higher.
Outcome codes: active, inactive

INSERT INTO results (compound, discrete_label) VALUES
  ('CC1=NN(c2nc(N)nc(/C(C#N)=C\c3ccc(-c4ccc([N+](=O)[O-])cc4)o3)n2)C(C)(C)C1', 'inactive'),
  ('Nc1c(Cl)ncnc1NCC1(CO)CCC1', 'inactive'),
  ('O=C(Nc1nc2ncn(CCI)c2c(=O)[nH]1)c1ccccc1', 'inactive'),
  ('O=C(NNC(c1ccccc1)C(F)(F)F)c1ccncc1 (stereo unspecified)', 'inactive'),
  ('N#CC(C(=O)C(=O)Nc1c(Cl)cccc1Cl)c1ccccc1 (stereo unspecified)', 'inactive'),
  ('N#Cc1c(-c2ccccc2)c(C#N)c(=S)n(C2OC(CO)C(O)C(O)C2O)c1O (stereo unspecified)', 'inactive'),
  ('COC1C(O)CC(OC2C(C)OC(Oc3cc(O)c4c(O)c5c(cc4c3)C[C@@H]([C@H](OC)C(=O)[C@@H](O)[C@@H](C)O)[C@H](OC3CC(OC4CC(OC6CC(C)(O)C(O)C(C)O6)C(O)C(C)O4)C(O)C(C)O3)C5=O)CC2OC(C)=O)OC1C (stereo partly specified)', 'inactive'),
  ('COc1cccc2c1OC(c1cccc3ccccc13)C([N+](=O)[O-])=C2 (stereo unspecified)', 'inactive'),
  ('CCCCI(O)OS(=O)(=O)c1ccc(C)cc1', 'inactive'),
  ('Cc1ccc(Sc2ccccc2N)cc1', 'inactive'),
  ('CCC1(O)C(=O)OCc2c1cc1n(c2=O)Cc2cc3ccccc3nc2-1 (stereo unspecified)', 'active'),
  ('S=c1sc2ccccc2n1CN1CCN(Cc2ccccc2)CC1', 'inactive'),
  ('CN1C(=O)CN2C(Cl)(Cl)C2(c2ccccc2)c2cc(Cl)ccc21 (stereo unspecified)', 'inactive'),
  ('Cc1cc(=O)oc2cc(OC(=O)N(C)C)c(Cl)cc12', 'inactive'),
  ('C/C=C\C(CC(=O)NCCc1cn(C(=O)OCc2ccccc2)c2ccccc12)CC(=O)OC (stereo unspecified)', 'inactive'),
  ('C/N=N/N(C)C(=O)NC', 'inactive'),
  ('CC(=O)OCSc1ncnc2c1ncn2CN1CCOCC1', 'inactive'),
  ('CSC1=NN(c2ccccc2)C(=O)C1=C(SC)SC', 'inactive'),
  ('CCN(CC)c1c(N(CC)CC)c(=O)c1=O', 'inactive'),
  ('COC(=O)C1(Cc2ccc3c(c2)CCC3)Cc2cc3c(cc2C1)CCC3', 'inactive'),
  ('Cc1cc(C)nc(NS(=O)(=O)c2ccc(Nc3c4ccccc4nc4c(C(=O)Nc5ccc(S(N)(=O)=O)cc5)cccc34)cc2)n1', 'inactive');
